protocol_summary: Human liver microsomal stability of compound in microsomal protein, PBS buffer pH 7.4, NADPH, glucose-6-phosphate and glucose-6-phosphate dehydrogenase media. Aliquotes were taken at 5 time points and after stopping the reaction, supernatants were analyzed using HPLC coupled with a tandem mass spectrometer. The elimination constant, half-life, and intrinsic clearance are determined as results using linear regression analysis.
Type: ADME, microsomes, Microsome
run_conditions: liver microsomes
readout: microsomal CLint (µL/min/mg)

A. O=C(O)c1cc(Cl)ccc1NS(=O)(=O)c1ccc(-c2ccccc2Cl)cc1
B. Cc1cc(OCc2ccccc2)ccc1NS(=O)(=O)c1ccc(Cl)cc1C(=O)O
**Q:** Identify the entry with the larger microsomal CLint. Options: A and B Use the label to indicate which entry you chose.
**A:** A

I. CC(C)CNC(=O)c1cc(Cl)c(F)cc1NS(=O)(=O)c1ccc(Oc2ccccc2Cl)cc1
II. N#C[C@H](Nc1cccc(C(=O)O)c1)c1cc(Cl)cc2[nH]ncc12
**Q:** Identify the entry with the larger microsomal CLint. Options: I and II Use the label to indicate which entry you chose.
**A:** I
(I: 198 µL/min/mg, II: 12 µL/min/mg)

I. Cc1c(C(=O)Nc2cc([C@H]3CCOC3)ccn2)cc(C2CC2)n1C
II. CNC(=O)[C@H](Nc1cc(Cl)cc(NC(=O)OCc2ccccc2)c1)c1cccc(-c2nn[nH]n2)c1
III. O=C(Nc1ccc2c(c1)CNC2)c1cc(Br)cc2[nH]c(-c3ccccc3)nc12
**Q:** Ascending by microsomal CLint, please: list the compounds accordingly. Please reply with the labels ordered as requested. Many thanks.
**A:** III, II, I

I. O=C(Nc1cc2c(cc1Br)CNC2)c1cc(F)cc2[nH]ncc12
II. O=C(N[C@H]1[C@H]2CCCCC[C@H]2[C@H]1C(=O)Nc1cccc(C2CCNCC2)c1)OCc1ccccc1
**Q:** Identify the entry with the larger microsomal CLint. Options: I and II Use the label to indicate which entry you chose.
**A:** II
(II: 31.3 µL/min/mg, I: 11.4 µL/min/mg)

====

protocol_summary: Mouse liver microsomal stability of compound in microsomal protein, PBS buffer pH 7.4, NADPH, glucose-6-phosphate and glucose-6-phosphate dehydrogenase media. Aliquotes were taken at 5 time points and after stopping the reaction, supernatants were analyzed using HPLC coupled with a tandem mass spectrometer. The elimination constant, half-life, and intrinsic clearance are determined as results using linear regression analysis.
Format: ADME, microsomes, Microsome
run_conditions: microsomes
readout: Remaining (%)

Examples with their reported Remaining follow.
INSERT INTO assay_data (compound_smiles, observed) VALUES
  ('COc1ccc(-c2nc3c(C(=O)Nc4ccc5c(c4)CNC5)cc(F)cc3[nH]2)nn1', 73.587),
  ('Cn1c(=O)[nH]c2c(C(=O)Nc3ccc4c(c3)CNC4)cc(Br)cc21', 78.028);

I. COCc1cc(Cl)cc([C@H](Nc2ccc3c(c2)CNC3)C(=O)NCC(F)F)c1
II. CSc1cc2c(cc1NC(=O)c1cc(F)cc3[nH]ncc13)CNC2
**Q:** Identify the entry with the larger Remaining. Options: I and II Use the label to indicate which entry you chose.
**A:** I

====

protocol_summary: Mouse liver microsomal stability of compound in microsomal protein, PBS buffer pH 7.4, NADPH, glucose-6-phosphate and glucose-6-phosphate dehydrogenase media. Aliquotes were taken at 5 time points and after stopping the reaction, supernatants were analyzed using HPLC coupled with a tandem mass spectrometer. The elimination constant, half-life, and intrinsic clearance are determined as results using linear regression analysis.
Type: ADME, microsomes, Microsome
run_conditions: liver microsomes
readout: half-life (h)

Examples with their reported half-life follow.
INSERT INTO assay_data (compound_smiles, unit_spec, observed) VALUES
  ('CNC(=O)c1cc(Cl)ccc1NS(=O)(=O)c1ccc(Oc2ccccc2Cl)cc1', 'h', 0.247),
  ('Cc1c(C(=O)Nc2cc(-c3cccnc3)ccn2)cc(C2CC2)n1C', 'h', 0.0717),
  ('CN(c1ccc2c(c1)CNC2)[C@H](C(=O)NCC(F)F)c1cc(Cl)cc(C2CC2)c1', 'h', 2.63);

P. NCc1cccc(CNC(=O)[C@@H](NC(=O)OCc2ccccc2)c2ccc(OCc3ccccc3)cc2)c1
Q. O=C(Nc1ccc2c(c1)CNC2)c1cc(F)cc2[nH]c(-c3ccc(F)cc3)nc12
**Q:** # min-compare on half-life between P and Q Use the label to indicate which entry you chose.
**A:** Q
(Q: 0.756 h, P: 8.46 h)
